# experimentalTarget: T1, human ICAM-1 (immobilized, SPR) (human, UniProt P05362 28-480, limits assumed)
# T1 construct: Form immobilized on the SPR chip is not described; also called Intercellular adhesion molecule-1; CD54
# T1 sequence (P05362 28-480 limits assumed): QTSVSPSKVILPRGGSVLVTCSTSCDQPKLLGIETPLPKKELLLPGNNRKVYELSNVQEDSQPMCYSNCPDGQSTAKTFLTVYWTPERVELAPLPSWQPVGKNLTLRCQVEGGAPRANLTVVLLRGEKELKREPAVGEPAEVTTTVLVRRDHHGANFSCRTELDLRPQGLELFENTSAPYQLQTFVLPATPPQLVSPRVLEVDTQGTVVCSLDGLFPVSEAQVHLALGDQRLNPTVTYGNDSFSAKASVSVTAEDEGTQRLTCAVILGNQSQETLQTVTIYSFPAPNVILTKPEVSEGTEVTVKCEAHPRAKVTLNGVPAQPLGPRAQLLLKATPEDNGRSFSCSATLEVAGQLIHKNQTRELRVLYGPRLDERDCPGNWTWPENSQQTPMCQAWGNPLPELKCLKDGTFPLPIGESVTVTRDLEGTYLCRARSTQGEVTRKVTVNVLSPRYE
# methodDescription: SPR, I domain over immobilized human ICAM-1
endpoint: Kd

- binder: "F292G LFA-1 I domain (receptor) GNVDLVFLFDGSMSLQPDEFQKILDFMKDVMKKLSNTSYQFAAVQFSTSYKTEFDFSDYVKWKDPDALLKHVKHMLLLTNTFGAINYVATEVFREELGARPDATKVLIIITDGEATDSGNIDAAKDIIRYIIGIGKHFQTKESQETLHKFASKPASEFVKILDTGEKLKDLFTELQKKIYVIEG"
  Kd: "119 nM"
- binder: "F292A LFA-1 I domain (receptor) GNVDLVFLFDGSMSLQPDEFQKILDFMKDVMKKLSNTSYQFAAVQFSTSYKTEFDFSDYVKWKDPDALLKHVKHMLLLTNTFGAINYVATEVFREELGARPDATKVLIIITDGEATDSGNIDAAKDIIRYIIGIGKHFQTKESQETLHKFASKPASEFVKILDTAEKLKDLFTELQKKIYVIEG"
  Kd: "20000 nM"

Now for another entry.
# Kd lookup, item F265S LFA-1 I domain (receptor) GNVDLVFLFDGSMSLQPDEFQKILDFMKDVMKKLSNTSYQFAAVQFSTSYKTEFDFSDYVKWKDPDALLKHVKHMLLLTNTFGAINYVATEVFREELGARPDATKVLIIITDGEATDSGNIDAAKDIIRYIIGIGKHSQTKESQETLHKFASKPASEFVKILDTFEKLKDLFTELQKKIYVIEG
145 nM
